System: OVCAR-5 complex spheroids, viability
Assay: Anticancer human tumor OVCAR-5 cell line growth inhibition; active = viability on the fitted dose curve at most 10% of control; inactive = the rest;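 note: spheroids exposed to agents for seven days; 100% = DMSO vehicle control wells viability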
Conditions: second compound 1 µM; first compound 0.1 µM
Labels: 1 for active, 0 for inactive

compound | class.assignment
Nc1ncn(C2CC(O)C(CO)O2)c(=O)n1 (configuration not stated) + NC1CCC(NC2CC2c2ccccc2)CC1 | 0
CC(C)CC(NC(=O)C(Cc1ccccc1)NC(=O)c1cnccn1)B(O)O (configuration not stated) + NC1CCC(NC2CC2c2ccccc2)CC1 | 1
COc1ccc([C@@H](O)c2cc(-c3ncnc4cc(N5CCOCC5)ccc34)c(F)cc2Cl)nn1 + NC1CCC(NC2CC2c2ccccc2)CC1 | 0
CC(C)CC(NC(=O)C(Cc1ccccc1)NC(=O)c1cnccn1)B(O)O (configuration not stated) + NC1CC1c1ccc(-c2cccc(O)c2)cc1 | 1
O=C(c1cc(Cc2n[nH]c(=O)c3ccccc23)ccc1F)N1CCN(C(=O)C2CC2)CC1 + NC1CCC(NC2CC2c2ccccc2)CC1 | 0
CC[C@@]1(O)C(=O)OCc2c1cc1n(c2=O)Cc2cc3c(CN(C)C)c(O)ccc3nc2-1 + NC1CCC(NC2CC2c2ccccc2)CC1 | 0
CC(C)CC(NC(=O)CNC(=O)c1cc(Cl)ccc1Cl)B1OC(=O)CC(CC(=O)O)(C(=O)O)O1 (configuration not stated) + NC1CC1c1ccc(-c2cccc(O)c2)cc1 | 0
